Quick list: pIC50 per entry.
# Test system: DRO cells
# protocol: DRO cell proliferation (cell counts over six days)
# Format: cell-based, human
# runParameters: Homo sapiens; DRO cells treated every 48 hours over six days; read-out: IC50, concentration at which 50% of cell proliferation was inhibited
pIC50: −log10 of the molar value.

# molecule, pIC50
measured = [
    ("Cc1c(C)c2c(c(C)c1O)CCC(C)(COc1ccc(CC3SC(=O)NC3=O)cc1)O2 (centres unmarked) [troglitazone]", "~5.85"),
]

Below: the item to evaluate.
Would you mind telling me what pIC50 value was observed for CN(CCOc1ccc(CC2SC(=O)NC2=O)cc1)c1ccccn1 (centres unmarked) [rosiglitazone] ?
~7.12
